Listing of recorded Hoechst 33342 nuclear staining score by entry.
System: adherent cells or suspension cells
Assay: Hoechst 33342 nuclear staining (fraction of apoptotic nuclei)
Format: cell-based
Set-up: key: 0 relating to no activity; 1 relating to weak activity comprising less than 70% of the cells; score 2 relating to strong activity comprising more than 70% of the cells
Conditions: Jurkat, conc 0.1 μm
quantity.name: Hoechst 33342 nuclear staining score

Cc1ccc(/C=C/C(=O)Cn2c(-c3nonc3N)nc3ccccc32)cc1	0
Nc1nonc1-c1nc2ccccc2n1COc1ccccc1	0

----------
Test system: Jurkat
Experiment: MTS proliferation assay, Jurkat
Format: cell-based, human
Conditions: Homo sapiens, 72 h incubation, read-out: MTS proliferation assay IC 50 Jurkat
quantity.name: IC50

CN(C)c1nonc1-c1nc2ccccc2n1CC(=O)c1ccc(Cl)cc1 [Example 4]	0.01 to 0.1 µM
N#CCCNc1nonc1-c1nc2ccccc2n1CC(=O)c1ccc(Cl)cc1 [Example 6]	< 0.01 µM
COc1cc(C(=O)Cn2c(-c3nonc3N)nc3ccccc32)ccc1O [Example 74]	0.1 to 1 µM
Nc1nonc1-c1nc2ccccc2n1CC(=O)c1ccc(Cl)c([N+](=O)[O-])c1 [Example 66]	0.01 to 0.1 µM
Nc1nonc1-c1nc2ccccc2n1CC(=NO)c1ccc(Br)cc1 [Example 2]	> 1 µM
Nc1nonc1-c1nc2ccccc2n1COc1ccccc1 [Example 7]	0.1 to 1 µM
COCOc1ccc(C(=O)Cn2c(-c3nonc3N)nc3ccccc32)cc1OC [Example 15]	< 0.01 µM
CNc1nonc1-c1nc2ccccc2n1CC(=O)c1ccc(Cl)cc1 [Example 3]	0.1 to 1 µM
COC(=O)CCNc1nonc1-c1nc2ccccc2n1CC(=O)c1ccc(Cl)cc1 [Example 9]	0.1 to 1 µM
